Where do these numbers come from? They come from patent US5567692A.

- Tested on: E. coli ATCC 25922
- PROTOCOL NOTES: MIC, agar dilution
- Format: cell-based
- RUN CONDITIONS: Escherichia coli, ATCC25922, 18 h, read-out: MIC
Counter-ions that a name gives are not always drawn.
QUANTITY KIND: MIC

CC1CCN(CC(=O)Nc2ccc3c(c2O)C(=O)C2=C(O)[C@]4(O)C(=O)C(C(N)=O)=C(O)[C@@H](N(C)C)C4CC2C3)CC1 (some centres unmarked) [A, dihydrochloride]
0.25 µg/mL
CNCC(=O)Nc1ccc2c(c1O)C(=O)C1=C(O)[C@]3(O)C(=O)C(C(N)=O)=C(O)[C@@H](N(C)C)C3CC1C2 (some centres unmarked) [F, dihydrochloride]
0.5 µg/mL
CN(C)[C@@H]1C(O)=C(C(N)=O)C(=O)[C@@]2(O)C(O)=C3C(=O)c4c(ccc(NC(=O)CNCc5ccccc5)c4O)CC3CC12 (some centres unmarked) [J, dihydrochloride]
4 µg/mL
CCN(CC)CC(=O)Nc1ccc2c(c1O)C(=O)C1=C(O)[C@]3(O)C(=O)C(C(N)=O)=C(O)[C@@H](N(C)C)C3CC1C2 (some centres unmarked) [O, dihydrochloride]
0.5 µg/mL

Could you now look at the following compound, please?
// query Specify the recorded MIC for CCNCC(=O)Nc1ccc2c(c1O)C(=O)C1=C(O)[C@]3(O)C(=O)C(C(N)=O)=C(O)[C@@H](N(C)C)C3CC1C2 (some centres unmarked) [E, dihydrochloride] , system: E. coli ATCC 25922.
// result 0.25 µg/mL

###

- Test system: Enterococcus 12201
- PROTOCOL NOTES: MIC, agar dilution
- Format: cell-based
- RUN CONDITIONS: Enterococcus, 12201, 18 h
Structures can show the parent of a compound that is named as a salt.
Threshold check on MIC: strictly below 0.5 µg/mL is yes (1); on or above 0.5 µg/mL is no (0).

CCCCNCC(=O)Nc1ccc2c(c1O)C(=O)C1=C(O)[C@]3(O)C(=O)C(C(N)=O)=C(O)[C@@H](N(C)C)C3CC1C2 (stereo partly shown) [H, dihydrochloride]
yes (1)
CCCNCC(=O)Nc1ccc2c(c1O)C(=O)C1=C(O)[C@]3(O)C(=O)C(C(N)=O)=C(O)[C@@H](N(C)C)C3CC1C2 (stereo partly shown) [C, dihydrochloride]
yes (1)

Next item in the queue.
// query Answer whether the molecule CCCCCCNCC(=O)Nc1ccc2c(c1O)C(=O)C1=C(O)[C@]3(O)C(=O)C(C(N)=O)=C(O)[C@@H](N(C)C)C3CC1C2 (stereo partly shown) [G, dihydrochloride] has MIC strictly less than 0.5 µg/mL
// result yes (1)

###

- Tested on: E. coli UBMS 90-4 Tet M
- PROTOCOL NOTES: microbe, parasite or virus in culture
- Type: cell-based
- RUN CONDITIONS: Escherichia coli, UBMS904TETM, 18 h
Counter-ions that a name gives are not always drawn.
Could you please mark fulfilled for values of MIC below 0.5 µg/mL and not fulfilled for values at or above it?

CN(C)CC(=O)Nc1ccc2c(c1O)C(=O)C1=C(O)[C@]3(O)C(=O)C(C(=O)NCN4CCCC4)=C(O)[C@@H](N(C)C)C3CC1C2 (stereo partly drawn) [EE]
fulfilled
CN(C)CC(=O)Nc1ccc2c(c1O)C(=O)C1=C(O)[C@]3(O)C(=O)C(C(N)=O)=C(O)[C@@H](N(C)C)C3CC1C2 (stereo partly drawn) [AA]
fulfilled
CN(C)[C@@H]1C(O)=C(C(N)=O)C(=O)[C@@]2(O)C(O)=C3C(=O)c4c(ccc(NC(=O)CNCc5ccccn5)c4O)CC3CC12 (stereo partly drawn) [N, dihydrochloride]
not fulfilled
CC(Br)C(=O)Nc1ccc2c(c1O)C(=O)C1=C(O)[C@]3(O)C(=O)C(C(N)=O)=C(O)[C@@H](N(C)C)C3CC1C2 (stereo partly drawn) [S, dihydrochloride]
not fulfilled
CN(C)[C@@H]1C(O)=C(C(N)=O)C(=O)[C@@]2(O)C(O)=C3C(=O)c4c(ccc(NC(=O)CNCC5CC5)c4O)CC3CC12 (stereo partly drawn) [Q, dihydrochloride]
fulfilled

// query For this molecule, is MIC lower than 0.5 µg/mL? CN(C)[C@@H]1C(O)=C(C(N)=O)C(=O)[C@@]2(O)C(O)=C3C(=O)c4c(ccc(NC(=O)CBr)c4O)CC3CC12 (stereo partly drawn) [R, monohydrochloride]
// result not fulfilled

// query Please indicate whether the reported MIC of CN(C)[C@@H]1C(O)=C(C(N)=O)C(=O)[C@@]2(O)C(O)=C3C(=O)c4c(ccc(NC(=O)CNCc5ccccc5)c4O)CC3CC12 (stereo partly drawn) [J, dihydrochloride] is strictly below 0.5 µg/mL.
// result not fulfilled

// query Consider the molecule CN(C)[C@@H]1C(O)=C(C(N)=O)C(=O)[C@@]2(O)C(O)=C3C(=O)c4c(ccc(NC(=O)CNCc5cccs5)c4O)CC3CC12 (stereo partly drawn) [L, dihydrochloride] . Is its MIC strictly less than 0.5 µg/mL?
// result not fulfilled
